- measured_on: T1, human CDH6 on tumor cells (OVCAR3 cells, PA-1 cells) (human, UniProt P55285 54-790)
- T1 sequence: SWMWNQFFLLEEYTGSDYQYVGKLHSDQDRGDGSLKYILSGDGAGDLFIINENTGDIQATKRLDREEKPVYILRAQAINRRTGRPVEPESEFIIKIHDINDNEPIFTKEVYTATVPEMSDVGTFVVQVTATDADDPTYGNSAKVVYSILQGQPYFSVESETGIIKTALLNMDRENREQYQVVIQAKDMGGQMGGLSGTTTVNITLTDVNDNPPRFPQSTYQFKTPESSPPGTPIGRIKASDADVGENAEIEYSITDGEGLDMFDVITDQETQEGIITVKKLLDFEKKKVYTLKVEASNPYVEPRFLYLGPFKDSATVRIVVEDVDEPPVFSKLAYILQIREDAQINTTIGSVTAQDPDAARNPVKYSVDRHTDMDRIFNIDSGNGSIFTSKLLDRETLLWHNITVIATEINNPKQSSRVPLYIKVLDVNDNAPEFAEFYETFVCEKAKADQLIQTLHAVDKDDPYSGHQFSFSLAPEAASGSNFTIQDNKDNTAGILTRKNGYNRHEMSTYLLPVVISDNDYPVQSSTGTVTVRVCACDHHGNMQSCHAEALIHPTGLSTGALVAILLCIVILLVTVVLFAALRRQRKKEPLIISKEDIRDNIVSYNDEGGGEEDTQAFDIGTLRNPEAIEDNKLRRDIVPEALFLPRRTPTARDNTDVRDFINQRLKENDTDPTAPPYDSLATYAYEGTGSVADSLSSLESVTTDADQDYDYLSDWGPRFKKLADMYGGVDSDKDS
- experimental_details: FACS, PA-1 cells
pEC50: −log10 of the molar value.
Entries and their pEC50
readout_kind: pEC50

{"binder": "hCDH6-14-H5L1 (antibody, V domains shown, Humanized) VH: EVQLQQSGAEVKKPGASVKVSCKASGYTFTDNYINWVRQAPGQRLEWMGWIYPGTGNSYYNEKFKGRVTITVDTSASTAYMELSSLRSEDTAVYYCASSYGDSFDYWGQGTTVTVSS VL: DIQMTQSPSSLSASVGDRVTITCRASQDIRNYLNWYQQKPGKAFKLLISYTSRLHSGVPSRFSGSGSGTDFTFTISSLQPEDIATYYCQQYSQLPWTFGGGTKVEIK", "number": 9.60}
{"binder": "hCDH6-14-H4L3 (antibody, V domains shown, Humanized) VH: EVQLVQSGAEVKKPGASVKVSCKASGYTFTDNYINWVRQAPGQGLEWMGWIYPGTGNSYYNEKFKGRVTITVDTSASTAYMELSSLRSEDTAVYYCASSYGDSFDYWGQGTTVTVSS VL: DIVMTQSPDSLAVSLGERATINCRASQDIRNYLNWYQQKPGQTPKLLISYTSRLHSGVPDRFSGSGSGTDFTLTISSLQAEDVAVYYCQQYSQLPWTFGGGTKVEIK", "number": 9.57}
{"binder": "hCDH6-14-H4L2 (antibody, V domains shown, Humanized) VH: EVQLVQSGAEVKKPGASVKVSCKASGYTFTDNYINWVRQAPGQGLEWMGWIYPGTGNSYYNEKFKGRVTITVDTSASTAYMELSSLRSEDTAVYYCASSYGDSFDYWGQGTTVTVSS VL: DIQMTQSPSSLSASVGDRVTITCRASQDIRNYLNWYQQKPGGAPKLLISYTSRLHSGVPSRFSGSGSGTDFTFTISSLQPEDIATYYCQQYSQLPWTFGGGTKVEIK", "number": 9.59}
{"binder": "CHI-CDH6-14 (antibody, human IgG1, kappa, V domains shown, also called CHI-hCDH6-14; CH1-CDH6-14) VH: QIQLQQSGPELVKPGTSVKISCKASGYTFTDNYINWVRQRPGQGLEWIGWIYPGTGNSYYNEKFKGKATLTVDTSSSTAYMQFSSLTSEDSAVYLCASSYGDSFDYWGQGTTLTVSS VL: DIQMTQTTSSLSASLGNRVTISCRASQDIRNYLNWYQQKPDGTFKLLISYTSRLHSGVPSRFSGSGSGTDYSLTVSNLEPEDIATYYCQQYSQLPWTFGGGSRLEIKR", "number": 9.57}
{"binder": "hCDH6-14-H1L2 (antibody, V domains shown, Humanized) VH: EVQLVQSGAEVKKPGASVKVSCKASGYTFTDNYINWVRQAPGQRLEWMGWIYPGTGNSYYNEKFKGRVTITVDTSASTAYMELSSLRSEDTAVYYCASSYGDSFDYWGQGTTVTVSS VL: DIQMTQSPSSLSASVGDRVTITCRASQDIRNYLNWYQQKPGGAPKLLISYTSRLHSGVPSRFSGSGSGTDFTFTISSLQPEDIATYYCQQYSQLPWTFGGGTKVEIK", "number": 9.66}
{"binder": "hCDH6-14-H5L2 (antibody, V domains shown, Humanized) VH: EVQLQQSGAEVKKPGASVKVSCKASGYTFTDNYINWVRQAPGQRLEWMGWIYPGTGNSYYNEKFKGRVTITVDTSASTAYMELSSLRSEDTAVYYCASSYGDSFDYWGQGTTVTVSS VL: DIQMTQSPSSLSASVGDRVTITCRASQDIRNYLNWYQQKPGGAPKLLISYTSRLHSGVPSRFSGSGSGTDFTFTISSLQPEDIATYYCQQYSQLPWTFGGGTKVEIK", "number": 9.64}
{"binder": "hCDH6-14-H1L1 (antibody, V domains shown, Humanized) VH: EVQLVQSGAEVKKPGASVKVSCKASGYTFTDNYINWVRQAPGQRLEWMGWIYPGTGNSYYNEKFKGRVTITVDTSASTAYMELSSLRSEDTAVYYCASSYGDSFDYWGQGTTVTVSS VL: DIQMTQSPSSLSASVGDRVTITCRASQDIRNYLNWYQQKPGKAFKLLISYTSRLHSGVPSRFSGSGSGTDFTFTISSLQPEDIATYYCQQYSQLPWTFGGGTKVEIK", "number": 9.59}

Source of measurements: patent US20260234242A1
